# SUBJECT OF TEST: Single-stranded DNA-binding protein (Escherichia coli (strain K12)) (UniProt P0AGE0)
# ASSAY SUMMARY: E. coli SSB displacement from DNA, counter-screen for HCV NS3 helicase inhibitor project, biochemical, fluorescence polarization, NIH Clinical Collection (AID 743271)
# SETTINGS: active compounds read high, concentration not given here
// values below are reported inhibition
QUANTITY MEASURED: inhibition (%)

COMPOUND | QUANTITY MEASURED | MEASURED VALUE
Cc1ncc([N+](=O)[O-])n1CC(C)O (stereo not given) | inhibition | 6.83
CCc1nc(N)nc(N)c1-c1ccc(Cl)cc1 | inhibition | 1.81
O=C(O)CCCc1ccccc1 | inhibition | 1.05
CN[C@@H]1[C@H](O)[C@H](NC)[C@H]2O[C@@]3(O)C(=O)C[C@@H](C)O[C@H]3O[C@@H]2[C@H]1O | inhibition | -4.29
O=c1[nH]cnc2[nH]ncc12 | inhibition | -3.53
CCCNC(=O)NS(=O)(=O)c1ccc(Cl)cc1 | inhibition | 1.05
NC(=O)c1cnccn1 | inhibition | -2.76
NCc1ccc(S(N)(=O)=O)cc1 | inhibition | 1.05
NCCc1ccc(O)c(O)c1 | inhibition | -2
CCC(C)(C)C(=O)O[C@H]1C[C@@H](C)C=C2C=C[C@H](C)[C@H](CC[C@@H]3C[C@@H](O)CC(=O)O3)[C@H]21 | inhibition | 6.39
CC1=C(CC(=O)O)c2cc(F)ccc2/C1=C\c1ccc(S(C)=O)cc1 (stereo not given) | inhibition | -3.53
Nc1nc(N)c2nc(-c3ccccc3)c(N)nc2n1 | inhibition | 7.91
CN(C)CCOC(c1ccccc1)c1ccccc1 | inhibition | 5.29
CCOc1ccc2ccccc2c1C(=O)N[C@@H]1C(=O)N2[C@@H]1SC(C)(C)[C@@H]2C(=O)O | inhibition | -6.58
c1ccc2[nH]c(-c3cscn3)nc2c1 | inhibition | -0.48
NS(=O)(=O)c1cc(C2(O)NC(=O)c3ccccc32)ccc1Cl (stereo not given) | inhibition | 1.05
O=S(=O)(O)CCS | inhibition | -2.76
Cc1onc(-c2ccccc2)c1-c1ccc(S(N)(=O)=O)cc1 | inhibition | -2.41
CC(=O)OCC[N+](C)(C)C | inhibition | 0.29
O=C1CCC(N2C(=O)c3ccccc3C2=O)C(=O)N1 (stereo not given) | inhibition | -1.24
CC(N=C(NC#N)Nc1ccncc1)C(C)(C)C (stereo not given) | inhibition | 1.97
NC(=O)N1c2ccccc2C=Cc2ccccc21 | inhibition | -3.53
CN(C)CCCN1c2ccccc2Sc2ccc(Cl)cc21 | inhibition | -1.24
COc1cc([C@@H]2c3cc4c(cc3[C@H](O)[C@H]3COC(=O)[C@H]23)OCO4)cc(OC)c1OC | inhibition | 1.05
CN=C(NC#N)NCCSCc1nc[nH]c1C | inhibition | -2
